B1: Zinc finger homeobox protein 3, residues 2244 to 2299; numbered along this chain, Q15911 (parent)
chain: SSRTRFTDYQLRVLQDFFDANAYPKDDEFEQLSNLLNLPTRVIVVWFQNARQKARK

Variants of: B1
assay comment: abundance fitness (aPCA) (normalised: wild type 0, dead -1); higher = more abundant; growth selection in yeast, the domain comes from the species named
assay conditions: Homo sapiens
// values below are reported abundance fitness

[
  {
    "variant": "L14H",
    "abundance fitness": -1.24
  },
  {
    "variant": "A22L",
    "abundance fitness": -0.129
  },
  {
    "variant": "F29Y",
    "abundance fitness": -0.052
  },
  {
    "variant": "F29W",
    "abundance fitness": -0.27
  },
  {
    "variant": "K25F",
    "abundance fitness": -0.338
  },
  {
    "variant": "T7P",
    "abundance fitness": -0.84
  },
  {
    "variant": "P24N",
    "abundance fitness": -0.922
  },
  {
    "variant": "L35C",
    "abundance fitness": -0.176
  },
  {
    "variant": "Y23G",
    "abundance fitness": -0.332
  },
  {
    "variant": "F29R",
    "abundance fitness": -0.324
  },
  {
    "variant": "V13S",
    "abundance fitness": -0.048
  }
]

The reported numbers originate from the Human Domainome abundance scans (Beltran et al. 2025).
